Cited source for all entries: patent US11084814B2

Biological target: CDK4/cyclin D3 (Homo sapiens)
Sequence (P11802 whole entry): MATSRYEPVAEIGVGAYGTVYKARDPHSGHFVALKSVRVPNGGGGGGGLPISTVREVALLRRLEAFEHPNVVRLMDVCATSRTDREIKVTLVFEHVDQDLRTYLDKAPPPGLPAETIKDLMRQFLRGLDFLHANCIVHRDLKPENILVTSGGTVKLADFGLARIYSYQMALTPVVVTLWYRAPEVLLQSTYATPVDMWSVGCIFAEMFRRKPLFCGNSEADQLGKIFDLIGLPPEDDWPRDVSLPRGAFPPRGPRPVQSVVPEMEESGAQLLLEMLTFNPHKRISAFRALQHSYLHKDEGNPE
Sequence (P30281 whole entry partner): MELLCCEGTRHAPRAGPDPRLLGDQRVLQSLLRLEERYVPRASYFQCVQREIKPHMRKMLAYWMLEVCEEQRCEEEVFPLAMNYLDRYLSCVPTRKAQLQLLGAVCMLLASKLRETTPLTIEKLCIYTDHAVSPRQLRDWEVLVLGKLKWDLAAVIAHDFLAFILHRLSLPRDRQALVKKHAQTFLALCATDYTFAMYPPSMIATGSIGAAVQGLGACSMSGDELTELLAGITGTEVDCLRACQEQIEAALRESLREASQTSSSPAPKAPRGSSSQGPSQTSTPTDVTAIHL
Experiment: Human CDK4/cyclin D3 inhibitory activity (QS S Assist CDK4/Cyclin D3_FP Kit, IMAP fluorescent polarization)
Settings: read-out: CDK4 Activity symbol
pIC50: −log10 of the molar value.
VALUE_KIND: pIC50

Cc1nc(Nc2ncc3cc([C@@H](C)O)nc(N4CCCC4)c3n2)ccc1N1CCNCC1 ... > 8.00
C[C@@H](O)c1cc2cnc(Nc3ccc(CN4CCN(C)[C@@H](C)C4)cn3)nc2c(N2C3CCC2CC3)n1 ... > 8.00
CC(O)c1cc2cnc(Nc3ccc4c(n3)CCN(C(=O)C3CCCCN3C)C4)nc2c(N2C3CCC2CC3)n1 (stereo not drawn) ... > 8.00
C[C@@H](O)c1cc2cnc(Nc3ccc4c(n3)CCN(C(=O)C3CNCCO3)C4)nc2c(N2CCCCC2)n1 (stereo partly drawn) ... > 8.00
C[C@@H](O)c1cc2cnc(Nc3ccc(CN4CCNCC4)cn3)nc2c(N2CCCCC2)n1 ... > 8.00

Given C[C@@H](O)c1cc2cnc(Nc3ccc(CN4CCC(CO)CC4)cn3)nc2c(N2CCOCC2)n1 , state its recorded pIC50.
7.00 to 8.00

Given C[C@@H](O)c1cc2cnc(Nc3ccc(CN4CCN(CCO)CC4)cn3)nc2c(N2CCCOCC2)n1 , state its recorded pIC50.
> 8.00
